B1: PhoQ; a variant is named by its letters at X, in order, P23837 (parent)
chain: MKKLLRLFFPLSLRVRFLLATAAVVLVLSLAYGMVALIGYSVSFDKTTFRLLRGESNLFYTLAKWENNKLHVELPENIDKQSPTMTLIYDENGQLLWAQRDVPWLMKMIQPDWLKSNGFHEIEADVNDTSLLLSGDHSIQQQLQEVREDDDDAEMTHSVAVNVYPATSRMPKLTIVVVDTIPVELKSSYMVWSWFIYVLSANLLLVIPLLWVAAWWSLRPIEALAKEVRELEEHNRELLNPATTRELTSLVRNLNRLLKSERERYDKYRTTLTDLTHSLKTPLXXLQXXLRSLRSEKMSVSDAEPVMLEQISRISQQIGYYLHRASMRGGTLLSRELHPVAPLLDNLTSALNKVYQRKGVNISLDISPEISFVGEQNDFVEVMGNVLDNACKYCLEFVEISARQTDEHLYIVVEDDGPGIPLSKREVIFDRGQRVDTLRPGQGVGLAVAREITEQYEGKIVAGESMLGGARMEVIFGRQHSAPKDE

variants of: B1; test: enrichment ratio after two sorts for PhoP signalling (ratio (wild type AVST 3.29)); higher = more functional; details: with PhoP (E. coli)
Whole data set: some 140,000 sequences, median “enrichment ratio after two sorts for PhoP signalling” near 0, cut for the highest 2% near 11. The sample as a whole holds a higher share of the highest values than the screen did.
Quantity Measured: enrichment ratio
Give the figure by itself; no unit, no explanation.

Enquiry: For the variant `STLQ` , report enrichment ratio.
Return: 18.3

Enquiry: For the variant `TGAI` , report enrichment ratio.
Return: 12.3

Enquiry: For the variant `QNWS` , report enrichment ratio.
Return: 8.87

Enquiry: For the variant `SQLA` , report enrichment ratio.
Return: 11.7

Enquiry: For the variant `SQLS` , report enrichment ratio.
Return: 7.34

Enquiry: For the variant `NSAI` , report enrichment ratio.
Return: 0.375

Enquiry: For the variant `THAI` , report enrichment ratio.
Return: 14.8

Enquiry: For the variant `SLLQ` , report enrichment ratio.
Return: 7.5

Enquiry: For the variant `SGAI` , report enrichment ratio.
Return: 12.3
